# Tested Target: T1, FAM19A5 mutant M6 (human)
# T1 chain: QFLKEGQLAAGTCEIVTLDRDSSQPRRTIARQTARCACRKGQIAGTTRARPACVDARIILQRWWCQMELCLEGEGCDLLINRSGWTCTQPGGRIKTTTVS
# Procedure Summary: ELISA on phage-expressed FAM19A5 mutants M1-M8
Measurement Type: binding result

Binder	Experimental Value
Anti-FAM19A5 antibody 1-65 (antibody, V domains shown, also called monoclonal antibody clone 1-65) VH: AVTLDESGGGLQTPGGALSLVCKASGFTFSSYQMGWVRQAPGKGLEWVGVINKSGSDTSYGSAVKGRATISRDNGQSTVRLQLNNLRAEDTGTYFCAKGSASYITAATIDAWGHGTEVIVSS VL: ALTQPSSVSANPGETVKITCSGGGSSGYGYGWYQQKSPSSAPLTVIYWNDKRPSDIPSRFSGSKSGSTHTLTITGVQAEDEAVYFCGNDDYSSDSGYVGVFGAGTTLTVL	no binding
Anti-FAM19A5 antibody P2-C12 (antibody, V domains shown) VH: QSLEESGGRLVTPGTPLTLTCTVSGFSLSTYAVTWVRQAPGKGLEWIGYINWRGGTSYANWAKGRFTISKTSSTTVDLKMTSPTTEDTATYFCARDASSGAAFGSYGMDPWGPGTLVTVSS VL: ELDMTQTPSSVSAAVGGTVTIKCQASQSISSYLSWYQQKPGQPPKLLIYEASKLASGVPSRFSGSGYGTEFTLTISDLECADAATYYCQQGYSSTNVWNAFGGGTNVEIK	no binding
Anti-FAM19A5 antibody 2-13 (antibody, V domains shown, also called clone 2-13) VH: AVTLDESGGGLQTPGGALSLVCKASGFTFSSHGMFWVRQTPGKGLEYVAEITNDGSGTNYGSAVKGRATISRDNGQSTVRLQLNNLRAEDTGTYFCARSTYECPGGFSCWGDTGQIDAWGHGTEVIVSS VL: ALTQPSSVSANPGETVKITCSGGSYSYGWFQQKSPGSALVTVIYWDDERPSDIPSRFSGALSGSTNTLTITGVQADDEAVYFCGTEDISGTAGVFGAGTTLTVL	binds
Anti-FAM19A5 antibody 13B4 (antibody, V domains shown) VH: QVQLQESGPGLVKPSGTLSLNCAVSGGSISSSNWWSWVRQPPGKGLEWIGEIYHGGTTNYNPSLKGRVTMSVDKTKNQFSLRLSSVTAVDTAVYYCARWQLVGGLDVWGQGTTVTVSS VL: SYELTQPLSVSVSPGQTASITCSGDKLGNVYASWYQQKPGQSPTLVIYQDNKRPSGIPERFSGSNSGKTATLTISGTQALDEADYYCQAWDSSTAVFGGGTKLTVL	no binding
